# target or test system: UniProt:Q9P2W1
# Sequence (Q9P2W1 1-180): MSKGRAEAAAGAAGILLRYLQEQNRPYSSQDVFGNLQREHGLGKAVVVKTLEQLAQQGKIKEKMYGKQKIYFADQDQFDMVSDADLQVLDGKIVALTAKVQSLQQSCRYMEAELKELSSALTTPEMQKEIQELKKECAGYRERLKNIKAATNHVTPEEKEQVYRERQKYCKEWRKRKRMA
# experimental details: In vitro DNA-binding assay of GT198 (biotinylated DNA, chemiluminescence)
# experimental parameters: Table 1; drugs not measured with IC50 are shown as active or inactive
reported metric: Efficacy (active or inactive)

compound: CCN(CC)CCNC(=O)c1c(C)[nH]c(/C=C2\C(=O)Nc3ccc(F)cc32)c1C
reported metric: Efficacy (active or inactive)
endpoint result: Active
--
compound: COc1cc([C@@H]2c3cc4c(cc3[C@@H](O[C@@H]3O[C@@H]5CO[C@@H](c6cccs6)O[C@H]5[C@H](O)[C@H]3O)[C@H]3COC(=O)[C@H]23)OCO4)cc(OC)c1O [Teniposide]
reported metric: Efficacy (active or inactive)
endpoint result: Active
--
compound: CO[C@H]1C[C@@H]2CC[C@@H](C)[C@@](O)(O2)C(=O)C(=O)N2CCCC[C@H]2C(=O)O[C@H]([C@H](C)C[C@@H]2CC[C@@H](O)[C@H](OC)C2)CC(=O)[C@H](C)/C=C(\C)[C@@H](O)[C@@H](OC)C(=O)[C@H](C)C[C@H](C)/C=C/C=C/C=C/1C
reported metric: Efficacy (active or inactive)
endpoint result: Active
--
compound: NCC(=O)CCC(=O)O
reported metric: Efficacy (active or inactive)
endpoint result: Active
